Target: human Edg-2 receptor (Homo sapiens)
Sequence (Q92633 whole entry): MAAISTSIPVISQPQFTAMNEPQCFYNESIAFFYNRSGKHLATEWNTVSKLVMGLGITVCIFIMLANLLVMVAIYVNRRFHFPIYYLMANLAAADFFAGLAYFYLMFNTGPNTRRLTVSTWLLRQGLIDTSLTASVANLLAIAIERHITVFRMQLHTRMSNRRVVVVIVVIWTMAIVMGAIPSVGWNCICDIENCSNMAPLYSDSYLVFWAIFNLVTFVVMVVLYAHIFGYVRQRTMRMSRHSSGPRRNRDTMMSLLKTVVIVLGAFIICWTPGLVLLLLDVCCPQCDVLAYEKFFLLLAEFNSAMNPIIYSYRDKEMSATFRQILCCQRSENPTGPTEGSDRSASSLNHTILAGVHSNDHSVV
Assay: Determination of Edg-2 receptor inhibition by FLIPR measurements (LPA-mediated calcium liberation)
Details: CHO cells overexpressing human Edg-2 receptor, LPA 100 nM, fluo-4 calcium fluorescence; read-out: Inhibitory concentrations IC50 for inhibition of the Edg-2 receptor
Listed here: items and their measured IC50.

COc1ncc(C(=O)N[C@]2(C(=O)O)CC[C@@H](C)CC2)cc1OCCc1cccc(Cl)c1 = < 100 nM
COc1ncc(C(=O)N[C@]2(C(=O)O)CC[C@@H](C(C)(C)C)CC2)cc1OCCc1cccc(C)c1 = 1000 to 30000 nM
CC[C@H]1CC[C@@](NC(=O)c2ccc(OC)c(OCCc3cccc(CCO)c3)c2)(C(=O)O)CC1 = < 100 nM

Pending compound:
compound COc1cc(F)c(-c2cc(C(=O)N[C@]3(C(=O)O)CC[C@@H](C)CC3)ccc2C(F)(F)F)c(F)c1 , IC50 observed: 100 to 1000 nM
